Recorded GI50 values for a group of compounds are listed next.
Test system: OVCAR-4
PROCEDURE SUMMARY: NCI tumour cell line growth inhibition, 48 h
Activity calls are given as the source filed them. Rule as the data show it: active = GI50 up to about 1.1 µM and inactive = higher.
EXPERIMENTAL ENDPOINT: GI50

COMPOUND: Clc1ccc2oc(CCc3ccccc3)nc2c1
EXPERIMENTAL RESULT: 52 µM (inactive)

COMPOUND: CCCCCCCCCCOC1C(C(O)CNCCCN(C)C)OC2OC3(CCCCC3)OC21 (stereo not given)
EXPERIMENTAL RESULT: 2.04 µM (inactive)

COMPOUND: CC(C)(C)C1C=C(Sc2ccccc2)C(=O)O1 (stereo not given)
EXPERIMENTAL RESULT: 63.8 µM (inactive)

COMPOUND: NC(=O)NC(=O)Nc1ccc(Br)cc1
EXPERIMENTAL RESULT: > 24.3 µM (inactive)

COMPOUND: CC1CCCC(C(O)CC2CC(=O)NC(=O)C2)C1O (stereo not given)
EXPERIMENTAL RESULT: > 100 µM (inactive)

COMPOUND: O=C1/C(=C/c2ccc(O)cc2)CCc2ccc([N+](=O)[O-])cc21
EXPERIMENTAL RESULT: > 90.6 µM (inactive)

COMPOUND: CCOC(=O)/C(C#N)=C(/NNc1ccccc1)c1ccncc1C(=O)O
EXPERIMENTAL RESULT: > 100 µM (inactive)

COMPOUND: O=C(NCc1ccccc1)c1nn[nH]c1O
EXPERIMENTAL RESULT: > 100 µM (inactive)

COMPOUND: Nc1nccc2c1ncn2C1C=C(CO)C(O)C1O (stereo not given)
EXPERIMENTAL RESULT: 59.4 µM (inactive)

COMPOUND: CC1OC(OC2C(O[C@H]3CC[C@@]4(C)[C@@H](CC[C@@H]5[C@@H]4CC[C@]4(C)[C@@H]6[C@H](C[C@@H]54)O[C@]4(CC[C@@H](C)CO4)[C@H]6C)C3)OC(CO)C(OC3OC(CO)C(O)C(OC4OCC(O)C(O)C4O)C3OC3OCC(O)C(O)C3O)C2O)C(O)C(O)C1O (stereo not given in full)
EXPERIMENTAL RESULT: 1.47 µM (inactive)

###

System: Malme-3M
PROCEDURE SUMMARY: NCI tumour cell line growth inhibition, 48 h
Activity calls are given as the source filed them. Cut-off read from the data, not from the text of the source: active = GI50 up to about 1.1 µM and inactive = higher.

COMPOUND: B.CC(=O)OC1CN2CCC1CC2 (stereo unspecified)
GI50: > 100 µM (inactive)
//
COMPOUND: COc1ccc2cc1Oc1ccc(cc1)CC1c3cc(OC)c(cc3CCN1C)Oc1c(OC)c(OC)cc3c1C(C2)N(C)CC3 (stereo unspecified)
GI50: 11.4 µM (inactive)
//
COMPOUND: CC(C)(C)CC(C)(C)c1cc2c(O)c(c1)Cc1cc(C(C)(C)CC(C)(C)C)cc(c1O)Cc1cc(C(C)(C)CC(C)(C)C)cc(c1O)Cc1cc(C(C)(C)CC(C)(C)C)cc(c1O)Cc1cc(C(C)(C)CC(C)(C)C)cc(c1O)C2
GI50: > 100 µM (inactive)
//
COMPOUND: Cc1c(OCCCOc2ccc3c(=O)cc(-c4ccccc4)oc3c2C)ccc2c(=O)cc(-c3ccccc3)oc12
GI50: > 100 µM (inactive)
//
COMPOUND: CCCCc1c2c(nc3c1CCCC3O)CCCC2 (stereo unspecified)
GI50: > 100 µM (inactive)
//
COMPOUND: CC1CCCN(CC(O)CN2CCCc3ccccc32)C1 (stereo unspecified)
GI50: > 100 µM (inactive)
//
COMPOUND: CC1CCCCN1CC(=O)c1ccc2c(c1)Sc1ccccc1O2 (stereo unspecified)
GI50: 13.5 µM (inactive)
//
COMPOUND: Cc1ccc(S(=O)(=O)N2CCN(CCN(C)CCN3CCN(S(=O)(=O)c4ccc(C)cc4)CC3)CC2)cc1
GI50: 18.6 µM (inactive)
//
COMPOUND: Nc1ccc(/N=N/c2ccc(-c3ccc(/N=N/c4c(S(=O)(=O)O)cc5cc(S(=O)(=O)O)c(/N=N/c6ccc([N+](=O)[O-])cc6)c(N)c5c4O)cc3)cc2)c2cc(S(=O)(=O)O)ccc12
GI50: > 100 µM (inactive)
//
COMPOUND: C=C(C)[C@@]1(O)O[C@H]2C[C@@]3(C)OC(=CC3=O)/C(C)=C\[C@@H]3OC(=O)[C@@]1(C)[C@H]32
GI50: 18.5 µM (inactive)
//
COMPOUND: COc1ccc2c3c([nH]c(=O)c2c1C(=O)O)-c1ccccc1CC3
GI50: > 100 µM (inactive)
//
COMPOUND: C[C@H]1[C@H](C)N(Cc2ccccc2)P(=O)(C(O)/C=C/c2ccccc2)N1Cc1ccccc1 (stereo partly specified)
GI50: 5.58 µM (inactive)
//
COMPOUND: CCCCCCCCCC(=O)CC(=O)c1c(O)cccc1O
GI50: 35.2 µM (inactive)
//
COMPOUND: CO[P@@]1(=O)O[C@@H](c2ccccc2)[C@H](O)[C@@]1(O)c1ccccc1
GI50: > 100 µM (inactive)
//
COMPOUND: O=C(Nc1nccs1)NS(=O)(=O)n1cnc2ccccc21
GI50: > 100 µM (inactive)
//
COMPOUND: O=c1[nH]cnc2c(C3OC(CO)C(O)C3O)c[nH]c12 (stereo unspecified)
GI50: > 100 µM (inactive)
